Each item that follows carries a reported growth inhibition.
test: NCI Yeast Anticancer Drug Screen. Data for the mlh1 rad18 strain (AID 175); conditions: S. cerevisiae mlh1 rad18 strain growth inhibition; at 50.0 µM; active compounds read high
Compounds without any hit were thinned out: in the full panel of roughly 79,000, 15% have a hit. Where a SMILES comes first, the peptide text is derived from it. The star is where a group is joined. Trt = c1ccc(C(c2ccccc2)(c2ccccc2)*)cc1; Cbz = O=C(OCc1ccccc1)*
Dear colleague, please return just the value in %, with no unit written.

# annotated cases, reported growth inhibition shown
Compound	growth inhibition (%)
CC(C)N(C(=O)c1ccc(Cl)c(Cl)c1)C(C)C	-5.65
CCCCCCCCCCCCCCOC(=O)C(N)Cc1ccc(O)cc1 (configuration not stated)	98.8
CN(C=O)c1ccc2c(c1)Cc1ccccc1-2	82
CCCNC(=O)OCc1ccc(NCCN(CC)CC)c2c(=O)c3ccccc3sc12	1.05
CCc1cccc(C(C)(C)C)c1NC(=S)N/C=C(\c1ccccc1)S(=O)Cc1ccccc1 (configuration not stated)	69.8
O=C1Sc2sc(=S)sc2SC1c1ccccc1 (configuration not stated)	90.5
CNC(=O)N/N=C/c1ccc([N+](=O)[O-])o1	71.5
CCC/C(=N\NC(=S)N1CCCCCC1)c1ccccn1	90.2

Asked: Find the recorded growth inhibition belonging to COc1cccc(N2C(=O)C3CC(CC(C)(C)C)c4c([nH]c5ccccc45)C3C2=O)c1 (configuration not stated) and report it.
Given back: 23.3

Asked: Any idea what growth inhibition was measured for "CCN(C(=O)O)c1ccc(/C=C/c2ccnc3ccccc23)cc1" ?
Given back: 29.4

Asked: Reported growth inhibition, compound COC(=O)C(CSC(c1ccccc1)(c1ccccc1)c1ccccc1)NC(=O)C(CC(N)=O)NC(=O)OCc1ccccc1 (stereo not drawn) (Cbz-Asn-Cys(Trt)-OMe; configuration not given here) : ____
Given back: 68.9

Asked: Which growth inhibition value is on record for "O=C1C=CC(=O)c2c(O)c(N3CCN(CCO)CC3)c(Cl)c(O)c21" ?
Given back: 88.8

Asked: Endpoint output: growth inhibition of "CCOC(=O)/C=C(\C)OCC" . Value?
Given back: 10.4

Asked: For the compound "CCN(CC)CC(C)(C)C(=O)/C=C/c1ccc(Cl)c(Cl)c1" , what growth inhibition is on record?
Given back: 99

Asked: // lookup growth inhibition for "c1ccc(CSc2nnc3c4ccccc4c4ccccc4c3n2)cc1"
Given back: 42

Asked: Any idea what its growth inhibition is? The compound is "CC1=C(C(=O)Nc2ccccc2)C(c2cccc([N+](=O)[O-])c2)C(C(=O)Nc2ccccc2)=C(C)N1"
Given back: 18.9
